target: UniProtKB Q92633
Sequence (Q92633 whole entry): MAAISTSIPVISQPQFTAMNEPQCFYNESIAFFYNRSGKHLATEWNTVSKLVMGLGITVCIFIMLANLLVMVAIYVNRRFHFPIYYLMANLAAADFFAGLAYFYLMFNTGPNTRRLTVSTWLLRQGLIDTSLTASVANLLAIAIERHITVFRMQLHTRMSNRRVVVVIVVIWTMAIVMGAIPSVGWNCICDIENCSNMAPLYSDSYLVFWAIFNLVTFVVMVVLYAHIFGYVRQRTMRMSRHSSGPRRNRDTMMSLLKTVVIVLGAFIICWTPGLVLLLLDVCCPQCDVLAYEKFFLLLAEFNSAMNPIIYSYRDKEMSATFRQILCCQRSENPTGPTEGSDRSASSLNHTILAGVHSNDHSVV
measurement-label: pIC50
When answering, recall that pIC50 equals minus log10 of the concentration in mol/L, and write that number alone.

// recorded pIC50 for Cc1ccc(NC(=O)C2(c3ccccc3C(C)C)CN(CCC#N)C2)c(OC(F)F)n1 : 8.40
